Biological target: MAL^TIR (Homo sapiens, UniProt P58753)
Construct: MAL (residues 79–221); 6xHis; made in house; host or cells: E. coli BL21 (DE3)
Sequence (P58753 79-221): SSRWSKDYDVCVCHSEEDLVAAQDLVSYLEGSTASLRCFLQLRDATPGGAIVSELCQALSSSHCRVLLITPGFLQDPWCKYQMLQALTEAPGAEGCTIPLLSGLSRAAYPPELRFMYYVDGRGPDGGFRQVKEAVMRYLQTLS
Assay: T‐Surf phage library (P8 and P3) selection against MAL^TIR, four rounds, NGS read counts
Assay type: binding
Conditions: P8 library, selection against MAL TIR; rank by count before grouping
metric: P8_MAL Rank (before)

I = SFYEPQVKMVLRNTTM
II = NFLGLLYNELVQAGLH
Q) Quick one: lower P8_MAL Rank (before), I or II ? Answer format: the label of the selected item.
A) I
(I: 1446, II: 2675)

----------
Molecular target: MyD88^TIR (Homo sapiens)
Construct: MyD88 (residues 148–296); 6xHis; made in house; host or cells: E. coli BL21 (DE3)
Sequence (Q99836 148-296): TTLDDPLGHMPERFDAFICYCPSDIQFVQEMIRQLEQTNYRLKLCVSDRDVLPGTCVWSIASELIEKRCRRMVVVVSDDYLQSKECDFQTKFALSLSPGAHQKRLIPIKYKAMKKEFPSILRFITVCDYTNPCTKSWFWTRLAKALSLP
Assay: T‐Surf phage library (P8 and P3) selection against MyD88^TIR, four rounds, NGS read counts
Format: binding
Conditions: P8 library, 4R selection against MyD88, rank before grouping
metric: P8_MyD88 Rank (before)

I = MFGGDPLHDFLDLISL
II = DVVCDYLLPNLEGPAG
Q) // task: argmin of P8_MyD88 Rank (before) over [ I , II ] Label of pick, please.
A) II

P = QLIQQWIELHLHQLH
Q = YAASPWWFDELLQIA
Q) I'd appreciate it if you could identify which of P and Q has the greater P8_MyD88 Rank (before). Indicate which entry you chose by stating its label.
A) P

I = IDDDHLTYLVRLLYSL
II = WALDELLTILYAKETM
III = GPQELEWCYERLVTKF
Q) Sort these sequences on P8_MyD88 Rank (before) so the largest reading comes first. // ordering of labels required in reply
A) I, III, II
(I: 3631, III: 2278, II: 1468)

I = DPQDQEWLYERLFSQM
II = WALDELLQILHAKETM
Q) For I and II , which recorded P8_MyD88 Rank (before) is lower? // output: label of the selected item
A) II
